Biological target: T1, HLA-A2/E7 (11-19) tetramer (human; HPV 16)
T1 construct: also called E7(11-19) peptide-MHC tetramer; E7 (11-19)-loaded tetramer
Test: tetramer flow cytometry; transfected 1:1 CD4+ and CD4+/CD8+ Jurkat-derived cells;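 note: cells transiently transfected with TCR plasmids, stained 48 h later with HLA-A*02:01 peptide-MHC tetramer plus anti-CD8 antibody, read by flow cytometry to assess CD8-independent tetramer binding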

{"Binder": "TCR 46 (codon optimized, cysteine modified version) (TCR, V domains shown) V domain 1: AQSVTQLDSQVPVFEEAPVELRCNYSSSVSVYLFWYVQYPNQGLQLLLKYLSGSTLVKGINGFEAEFNKSQTSFHLRKPSVHISDTAEYFCAVSPSSGTYKYIFGTGTRLKVLA V domain 2: GAGVSQTPSNKVTEKGKYVELRCDPISGHTALYWYRQSLGQGPEFLIYFQGTGAADDSGLPNDRFFAVRPEGSVSTLKIQRTERGDSAVYLCASSLYLGGSETQYFGPGTRLLVLE", "% cells in E7 tet-/CD8+ quadrant": "38.9%"}
{"Binder": "TCR 42 (codon optimized, cysteine modified version) (TCR, V domains shown) V domain 1: GQQVMQIPQYQHVQEGEDFTTYCNSSTTLSNIQWYKQRPGGHPVFLIQLVKSGEVKKQKRLTFQFGEAKKNSSLHITATQTTDVGTYFCAGPDNFNKFYFGSGTKLNVKP V domain 2: EPEVTQTPSHQVTQMGQEVILRCVPISNHLYFYWYRQILGQKVEFLVSFYNNEISEKSEIFDDQFSVERPDGSNFTLKIRSTKLEDSAMYFCAKTSRSSYEQYFGPGTRLTVTE", "% cells in E7 tet-/CD8+ quadrant": "39.5%"}
{"Binder": "TCR 44 (codon optimized, cysteine modified version) (TCR, V domains shown) V domain 1: GQNIDQPTEMTATEGAIVQINCTYQTSGFNGLFWYQQHAGEAPTFLSYNVLDGLEEKGRFSSFLSRSKGYSYLLLKELQMKDSASYLCAQYSGGYQKVTFGTGTKLQVIP V domain 2: DSGVTQTPKHLITATGQRVTLRCSPRSGDLSVYWYQQSLDQGLQFLIQYYNGEERAKGNILERFSAQQFPDLHSELNLSSLELGDSALYFCASSGTPDTQYFGPGTRLTVLE", "% cells in E7 tet-/CD8+ quadrant": "39.9%"}
